Taken from PubChem BioAssay (NCI).

Test system: 786-0 renal
experimental.details: NCI tumour cell line growth inhibition, 48 h
Catalogue of TGI values

Worked cases, answers included:
- NC1=NS(=O)(=O)Nc2nc(-c3ccc([N+](=O)[O-])cc3)[nH]c21: > 100 µM
- CCCC(C)NC1=C(NC(C)=O)C(=O)c2ccccc2C1=O (stereo not given): > 100 µM
- COc1ccc2c(O)cc3c(c2c1)[C@H](CCl)CN3C(=O)c1cc2cc(NC(=O)CCN3CCOCC3)ccc2[se]1: < 0.001 µM

Please report TGI for the following compound: COc1cccc(-n2c3nc(=O)n(C)c(=O)c-3nc3ccccc32)c1 > 100 µM

Please report TGI for the following compound: N#C/C(=C\n1ccc(=O)[nH]c1=S)C(N)=O > 100 µM
